Details: in 2-butanone, 288.15 K
observed property: solubility (mole fraction)

{"cpd smiles": "COC(=O)[C@@H](N)CS.Cl", "value reported": 0.00084}

---

Conditions: in isopropanol, 308.15 K
observed property: solubility (mole fraction)

{"cpd smiles": "COC(=O)[C@@H](N)CS.Cl", "value reported": 0.00648}

---

Details: in isobutanol, 333.15 K
observed property: solubility (mole fraction)

{"cpd smiles": "COC(=O)[C@@H](N)CS.Cl", "observed property": "solubility (mole fraction)", "value reported": 0.0196}

---

Conditions: in n-butanol, 318.15 K

{"cpd smiles": "COC(=O)[C@@H](N)CS.Cl", "solubility (mole fraction)": 0.0164}

---

Details: in ethanol, 288.15 K

{"cpd smiles": "COC(=O)[C@@H](N)CS.Cl", "solubility (mole fraction)": 0.0257}

---

Conditions: in 2-butanone, 333.15 K

{"cpd smiles": "COC(=O)[C@@H](N)CS.Cl", "solubility (mole fraction)": 0.00573}

---

Conditions: in sec-butanol, 293.15 K
observed property: solubility (mole fraction)

{"cpd smiles": "COC(=O)[C@@H](N)CS.Cl", "value reported": 0.00283}

---

Conditions: in 1,4-dioxane, 293.15 K

{"cpd smiles": "COC(=O)[C@@H](N)CS.Cl", "solubility (mole fraction)": 0.001}

---

Settings: in n-propanol, 313.15 K
observed property: solubility (mole fraction)

{"cpd smiles": "COC(=O)[C@@H](N)CS.Cl", "value reported": 0.0193}

---

Conditions: in isobutanol, 293.15 K
observed property: solubility (mole fraction)

{"cpd smiles": "COC(=O)[C@@H](N)CS.Cl", "value reported": 0.00478}

---

Details: in dichloromethane, 298.15 K

{"cpd smiles": "COC(=O)[C@@H](N)CS.Cl", "solubility (mole fraction)": 0.00011}

---

Conditions: in isobutanol, 298.15 K

{"cpd smiles": "COC(=O)[C@@H](N)CS.Cl", "solubility (mole fraction)": 0.00541}

---

Settings: in isopropanol, 333.15 K

{"cpd smiles": "COC(=O)[C@@H](N)CS.Cl", "solubility (mole fraction)": 0.0188}

---

Settings: in isopropanol, 313.15 K

{"cpd smiles": "COC(=O)[C@@H](N)CS.Cl", "solubility (mole fraction)": 0.00806}

---

Settings: in 2-butanone, 283.15 K
observed property: solubility (mole fraction)

{"cpd smiles": "COC(=O)[C@@H](N)CS.Cl", "observed property": "solubility (mole fraction)", "value reported": 0.00065}

---

Settings: in methanol, 293.15 K
observed property: solubility (mole fraction)

{"cpd smiles": "COC(=O)[C@@H](N)CS.Cl", "observed property": "solubility (mole fraction)", "value reported": 0.106}

---

Conditions: in isopropanol, 293.15 K
observed property: solubility (mole fraction)

{"cpd smiles": "COC(=O)[C@@H](N)CS.Cl", "observed property": "solubility (mole fraction)", "value reported": 0.00422}

---

Conditions: in ethyl acetate, 333.15 K

{"cpd smiles": "COC(=O)[C@@H](N)CS.Cl", "solubility (mole fraction)": 0.00052}

---

Details: in sec-butanol, 288.15 K
observed property: solubility (mole fraction)

{"cpd smiles": "COC(=O)[C@@H](N)CS.Cl", "value reported": 0.00265}

---

Conditions: in isopropanol, 283.15 K

{"cpd smiles": "COC(=O)[C@@H](N)CS.Cl", "solubility (mole fraction)": 0.0036}

---

Settings: in n-butanol, 303.15 K
observed property: solubility (mole fraction)

{"cpd smiles": "COC(=O)[C@@H](N)CS.Cl", "value reported": 0.0106}

---

Conditions: in n-propanol, 318.15 K
observed property: solubility (mole fraction)

{"cpd smiles": "COC(=O)[C@@H](N)CS.Cl", "value reported": 0.0219}

---

Conditions: in isopropanol, 288.15 K

{"cpd smiles": "COC(=O)[C@@H](N)CS.Cl", "solubility (mole fraction)": 0.00389}

---

Details: in n-propanol, 293.15 K
observed property: solubility (mole fraction)

{"cpd smiles": "COC(=O)[C@@H](N)CS.Cl", "value reported": 0.0106}

---

Conditions: in sec-butanol, 308.15 K
observed property: solubility (mole fraction)

{"cpd smiles": "COC(=O)[C@@H](N)CS.Cl", "observed property": "solubility (mole fraction)", "value reported": 0.00455}

---

Conditions: in n-propanol, 323.15 K

{"cpd smiles": "COC(=O)[C@@H](N)CS.Cl", "solubility (mole fraction)": 0.0272}

---

Conditions: in 1,4-dioxane, 313.15 K

{"cpd smiles": "COC(=O)[C@@H](N)CS.Cl", "solubility (mole fraction)": 0.00211}

---

Details: in isobutanol, 318.15 K
observed property: solubility (mole fraction)

{"cpd smiles": "COC(=O)[C@@H](N)CS.Cl", "value reported": 0.00972}

---

Settings: in isobutanol, 283.15 K

{"cpd smiles": "COC(=O)[C@@H](N)CS.Cl", "solubility (mole fraction)": 0.00393}

---

Settings: in n-pentanol, 298.15 K
observed property: solubility (mole fraction)

{"cpd smiles": "COC(=O)[C@@H](N)CS.Cl", "value reported": 0.00662}

---

Details: in ethyl acetate, 318.15 K
observed property: solubility (mole fraction)

{"cpd smiles": "COC(=O)[C@@H](N)CS.Cl", "observed property": "solubility (mole fraction)", "value reported": 0.0003}

---

Conditions: in 1,4-dioxane, 333.15 K

{"cpd smiles": "COC(=O)[C@@H](N)CS.Cl", "solubility (mole fraction)": 0.00349}

---

Conditions: in n-butanol, 288.15 K

{"cpd smiles": "COC(=O)[C@@H](N)CS.Cl", "solubility (mole fraction)": 0.00599}

---

Settings: in n-pentanol, 303.15 K
observed property: solubility (mole fraction)

{"cpd smiles": "COC(=O)[C@@H](N)CS.Cl", "observed property": "solubility (mole fraction)", "value reported": 0.00824}

---

Settings: in n-propanol, 288.15 K
observed property: solubility (mole fraction)

{"cpd smiles": "COC(=O)[C@@H](N)CS.Cl", "observed property": "solubility (mole fraction)", "value reported": 0.00883}

These entries and their values trace back to BigSolDB 2.1.
